Emax (%), IL-1β-induced PGE2 synthesis in endothelial cells (porcine) values by entry
- Measured target: IL-1R/IL-1RacP receptor on porcine cells and vessels (porcine (piglet), UniProt A0A5G2QSI4 18-572)
- Sequence (A0A5G2QSI4 entry or part of it): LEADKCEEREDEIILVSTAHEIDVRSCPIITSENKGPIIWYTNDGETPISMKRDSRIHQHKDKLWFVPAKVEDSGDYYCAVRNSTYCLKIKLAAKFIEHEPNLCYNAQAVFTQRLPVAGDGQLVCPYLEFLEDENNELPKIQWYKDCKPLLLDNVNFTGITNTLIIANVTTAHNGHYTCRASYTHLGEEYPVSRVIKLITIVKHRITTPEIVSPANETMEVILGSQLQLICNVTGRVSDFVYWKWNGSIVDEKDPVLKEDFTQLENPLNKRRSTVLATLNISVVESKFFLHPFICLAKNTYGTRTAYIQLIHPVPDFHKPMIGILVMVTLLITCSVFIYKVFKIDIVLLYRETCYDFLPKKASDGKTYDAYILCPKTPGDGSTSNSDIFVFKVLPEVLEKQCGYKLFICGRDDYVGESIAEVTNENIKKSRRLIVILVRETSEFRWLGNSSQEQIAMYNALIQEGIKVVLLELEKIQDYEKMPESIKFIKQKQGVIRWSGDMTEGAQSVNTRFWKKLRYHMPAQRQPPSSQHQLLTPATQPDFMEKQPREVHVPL
- Assay details: cell-based or functional assay
Where no end group is shown, it is not given here. [ ]: non-standard residue; d: D form.
I only need the number, in %, no unit after it.

[dK][dY][dT][dP][dE][dL][dA] [API-101.114]
50
[dR][dW][dT][dP][dE][dL][dA] [API-101.116]
45
[dR][dY][dT][dP][dD][dL][dA] [API-101.117]
100

Input line: Give Emax (%), IL-1β-induced PGE2 synthesis in endothelial cells (porcine) for [dR][dY][dT][dP][dE][dL] [API-101.113]
Output line: 80
